Kindly state PKA inhibition for each of the entries shown.
SYSTEM_NAME: PKA (Homo sapiens)
ASSAY_DETAILS: PKA inhibition assay
Format: biochemical
ASSAY_CONDITIONS: 10 μM compound
Give the quantity in %, number only.

Task: Request the reported PKA inhibition associated with COC1C(O)C(O)C(OC2OC(CO)C(O)C(O)C2N)C(O)C1O (stereo not shown) [RGL1015]
Result: 12

Task: Request the reported PKA inhibition associated with N[C@H]1[C@@H](O[C@H]2[C@H](O)[C@H](O)[C@H](O)[C@@H](O)[C@@H]2O)O[C@H](CO)[C@@H](OP(=O)(O)O)[C@@H]1O [RGL1027]
Result: 10

Task: Request the reported PKA inhibition associated with N[C@H]1[C@@H](O[C@H]2[C@H](O)[C@H](O)[C@H](O)[C@@H](O)[C@@H]2O)O[C@H](CO)[C@@H](O)[C@@H]1OP(=O)(O)O [RGL1029]
Result: 33

Task: Request the reported PKA inhibition associated with CO[C@H]1[C@H](O)[C@@H](O)[C@@H](O[C@H]2O[C@H](CO)[C@@H](O)[C@H](O)[C@H]2N)[C@H](O)[C@@H]1O [RGL1024]
Result: 2
